tgt: Protein skinhead-1 (Caenorhabditis elegans)
Sequence (P34707 whole entry): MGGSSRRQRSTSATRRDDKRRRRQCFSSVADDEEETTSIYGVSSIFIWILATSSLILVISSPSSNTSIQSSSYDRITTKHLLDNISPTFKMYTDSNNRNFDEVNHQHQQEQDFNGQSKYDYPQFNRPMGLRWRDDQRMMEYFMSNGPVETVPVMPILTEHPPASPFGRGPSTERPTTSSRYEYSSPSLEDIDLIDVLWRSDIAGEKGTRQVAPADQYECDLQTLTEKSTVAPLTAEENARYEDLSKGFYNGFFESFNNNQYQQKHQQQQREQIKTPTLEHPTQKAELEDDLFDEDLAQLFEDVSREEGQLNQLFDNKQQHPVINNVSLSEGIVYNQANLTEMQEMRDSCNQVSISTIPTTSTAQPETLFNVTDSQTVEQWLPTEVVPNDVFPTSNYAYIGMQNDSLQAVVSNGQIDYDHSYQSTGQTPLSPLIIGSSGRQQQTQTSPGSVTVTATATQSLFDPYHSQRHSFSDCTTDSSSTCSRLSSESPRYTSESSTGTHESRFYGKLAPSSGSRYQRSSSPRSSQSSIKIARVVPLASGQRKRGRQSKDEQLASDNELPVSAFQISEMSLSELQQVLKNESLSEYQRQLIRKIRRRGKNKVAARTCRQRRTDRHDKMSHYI
Assay type: functional
Active and inactive are the calls of the source.
Outcomes: active, inactive

molecule=CCOc1cccc2cc(C(=O)N3CCc4ccccc43)c(=O)oc12 classification=inactive
molecule="CCN(CC)CCN1C(=O)C(O)=C(C(=O)c2cnn(-c3ccccc3)c2C)C1c1ccc(C)o1 (centres undefined)" classification=inactive
molecule=Cc1ccc(/C=C2/SC(Nc3ccc(F)cc3)=NC2=O)s1 classification=inactive
molecule=c1ccc(OCc2nc(-c3cccs3)no2)cc1 classification=active

====

tgt: Luciferin 4-monooxygenase (Photinus pyralis, UniProt P08659)
Sequence (P08659 whole entry): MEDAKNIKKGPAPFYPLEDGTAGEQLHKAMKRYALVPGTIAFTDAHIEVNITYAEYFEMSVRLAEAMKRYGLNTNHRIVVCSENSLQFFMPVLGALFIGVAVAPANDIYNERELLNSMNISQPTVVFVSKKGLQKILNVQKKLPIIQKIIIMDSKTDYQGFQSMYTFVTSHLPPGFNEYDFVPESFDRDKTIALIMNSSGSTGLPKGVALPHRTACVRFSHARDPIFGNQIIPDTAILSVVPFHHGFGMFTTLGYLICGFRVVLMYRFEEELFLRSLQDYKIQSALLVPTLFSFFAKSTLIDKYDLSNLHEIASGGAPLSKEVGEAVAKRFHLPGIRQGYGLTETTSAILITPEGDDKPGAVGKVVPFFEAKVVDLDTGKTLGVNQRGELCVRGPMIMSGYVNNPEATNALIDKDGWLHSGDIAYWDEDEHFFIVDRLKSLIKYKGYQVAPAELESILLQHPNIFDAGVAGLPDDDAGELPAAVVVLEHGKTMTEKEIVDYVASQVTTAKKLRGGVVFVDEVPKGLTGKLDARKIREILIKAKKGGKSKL
test: firefly luciferase enzyme inhibitors, dose response, biochemical, luminescence (AID 1891)
Activity calls are given as the source filed them.
Overview of reported EC50 across a group of compounds:
readout name: EC50

compound=COc1ccc(NC(=O)CSc2ccccn2)c([N+](=O)[O-])c1 tgt="Luciferin 4-monooxygenase (Photinus pyralis, UniProt P08659)" result="> 112 µM (not active)"
compound=CCC(=O)Nc1cccc(NC(=O)c2ccccc2Br)c1 tgt="Luciferin 4-monooxygenase (Photinus pyralis, UniProt P08659)" result="> 112 µM (not active)"
compound=CCCCNCCOCCOc1ccc(F)cc1 tgt="Luciferin 4-monooxygenase (Photinus pyralis, UniProt P08659)" result="> 112 µM (not active)"
compound=COc1ccc(CSc2ncnc3sccc23)cc1F tgt="Luciferin 4-monooxygenase (Photinus pyralis, UniProt P08659)" result="> 112 µM (not active)"
compound=COc1ccc(-c2cc3nc(C)n(N)c(=O)c3s2)cc1 tgt="Luciferin 4-monooxygenase (Photinus pyralis, UniProt P08659)" result="0.263 µM (active)"
compound=O=C(c1ccco1)N1CCCN(Cc2nc(-c3cccs3)no2)CC1 tgt="Luciferin 4-monooxygenase (Photinus pyralis, UniProt P08659)" result="> 112 µM (not active)"
compound="O=C(O)C1C2C=CC(O2)C1C(=O)NCCCn1ccnc1 (centres undefined)" tgt="Luciferin 4-monooxygenase (Photinus pyralis, UniProt P08659)" result="> 112 µM (not active)"
compound=CCOC(=O)c1c(C)[nH]c(C)c1S(=O)(=O)NCC(=O)Nc1ccccn1 tgt="Luciferin 4-monooxygenase (Photinus pyralis, UniProt P08659)" result="> 112 µM (not active)"
compound=O=C(/C=C/c1ccccc1Cl)Nc1ccncc1 tgt="Luciferin 4-monooxygenase (Photinus pyralis, UniProt P08659)" result="20.6 µM (active)"
compound=CSc1ccc(/C=C(/NC(=O)c2ccco2)C(=O)N2CCCCC2)cc1 tgt="Luciferin 4-monooxygenase (Photinus pyralis, UniProt P08659)" result="> 112 µM (not active)"
compound=N=C(NOC(=O)c1ccc2ccccc2c1)c1ccccn1 tgt="Luciferin 4-monooxygenase (Photinus pyralis, UniProt P08659)" result="0.596 µM (active)"
compound=COc1ccc(-n2c(C)c(C(C)=O)c(C(C)=O)c2C)cc1OC tgt="Luciferin 4-monooxygenase (Photinus pyralis, UniProt P08659)" result="> 112 µM (not active)"
compound="CCCC(=O)C1=C(N2CCCC2)CC(C)(C)C(C(=O)OC)C1=O (centres undefined)" tgt="Luciferin 4-monooxygenase (Photinus pyralis, UniProt P08659)" result="> 112 µM (not active)"
compound=COc1ccccc1NC(=O)CSc1nc(O)c2c(C)cc(C)nc2n1 tgt="Luciferin 4-monooxygenase (Photinus pyralis, UniProt P08659)" result="> 112 µM (not active)"
